Target: T1, CD81 (UniProt P60033 1-236, limits assumed)
T1 construct: whole, on cells; also called CD81 receptor
T1 sequence (looked up): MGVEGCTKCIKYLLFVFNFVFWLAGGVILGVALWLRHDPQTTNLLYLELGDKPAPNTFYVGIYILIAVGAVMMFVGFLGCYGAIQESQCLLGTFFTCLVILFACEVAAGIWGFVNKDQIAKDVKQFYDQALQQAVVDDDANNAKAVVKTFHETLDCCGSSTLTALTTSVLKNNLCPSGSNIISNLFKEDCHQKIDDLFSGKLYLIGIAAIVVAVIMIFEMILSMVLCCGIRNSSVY
Experiment: cell ELISA;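 also: antibody binding to HuH7 cells expressing CD81 versus a CD81-negative HuH7 control line, bound antibody detected by secondary reagent, absorbance at 450 nm with 620 nm reference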
Endpoint: ELISA data

{"columns": ["Binder", "Endpoint", "Observed"],
 "data": [
  ["CD81K04 HC K04_JA-13-hVH_1_3 / LC GG-05-hVK_3_11 (antibody, V domains shown, human constant region) VH: QVQLVQSGAEVKKPGASVKVSCKASGYTFSSSWMNWVRQAPGQRLEWMGRIYSGDGDAIYNGKFKGRVTITRDTSASTAYMELSSLRSEDTAVYYCAREGKTGDLLLRSWGQGTLVTVSS VL: EIVLTQSPATLSLSPGERATLSCRASKSVSTSIYSYLHWYQQKPGQAPRLLIYYASNRETGIPARFSGSGSGTDFTLTISSLEPEDFAVYYCQHSREFPFTFGQGTKLEIK", "ELISA data", 0.56],
  ["CD81K04 HC JA_GG-15-hVH_1_3 / LC GG-02-hVK_4_1 (antibody, V domains shown, human constant region) VH: QVQLVQSGAEVKKPGASVKVSCKASGYTFSSSWMNWVRQAPGQRLEWMGRIYSGDGDAIYNGKFKGRVTITADTSASTAYMELSSLRSEDTAVYYCAREGKTGDLLLRSWGQGTLVTVSS VL: DIVMTQSPDSLAVSLGERATINCKSSKSVSTSIYSYMHWYQQKPGQPPKLLIYYASYRESGVPDRFSGSGSGTDFTLTISSLQAEDVAVYYCQHSREFPFTFGQGTKLEIK", "ELISA data", 0.602],
  ["CD81K04 HC K04_JA_GG-17-hVH_1_3 / LC GG-06-hVK_1_39 (antibody, V domains shown, human constant region) VH: QVQLVQSGAEVKKPGASVKVSCKASGYTFSSSWMNWVRQAPGQRLEWMGRIYSGDGDTIYSQKFQGRVTITADTSASTAYMELSSLRSEDTAVYYCAREGKTGDLLLRSWGQGTLVTVSS VL: DIQMTQSPSSLSASVGDRVTITCRASKSVSTSIYSYLNWYQQKPGKAPKLLIYYASYLQSGVPSRFSGSGSGTDFTLTISSLQPEDFATYYCQHSREFPYTFGQGTKLEIK", "ELISA data", 0.123],
  ["CD81K04 HC CD81K04 / LC JA_GG-10-hVK_4_1 (antibody, V domains shown, human constant region) VH: QVQLQQSGPELVKPGASVKISCKASGYTFSSSWMNWVKQRPGKGLEWIGRIYSGDGDAIYNGKFKGKATLTADKSSSTAYMQLSSLTSEDSAVYFCAREGKTGDLLLRSWGQGSALTVSS VL: DIVMTQSPDSLAVSLGERATINCRASKSVSTSIYSYMHWYQQKPGQPPKLLIKYASYLESGVPDRFSGSGSGTDFTLTISSLQAEDVAVYYCEHSREFPFTFGQGTKLEIK", "ELISA data", 1.06],
  ["CD81K04 HC GG-02-hVH_1_69 / LC CD81K04 (antibody, V domains shown, human constant region) VH: QVQLVQSGAEVKKPGSSVKVSCKASGYTFSSSWMNWVRQAPGQGLEWMGRIYSGDGDAIYNQKFQGRVTITADESTSTAYMELSSLRSEDTAVYYCAREGKTGDLLLRSWGQGTLVTVSS VL: DIVLTQSPASLSVSLGQRATISCRASKSVSTSIYSYMHWYQQKPGQPPKLLIKYASYLESGVPARFSGSGSGTDFTLNIHPVEEEDAATYYCEHSREFPFTFGTGTKLEIK", "ELISA data", 0.918],
  ["CD81K04 HC GG-02-hVH_1_69 / LC GG-04-hVK_4_1 (antibody, V domains shown, human constant region) VH: QVQLVQSGAEVKKPGSSVKVSCKASGYTFSSSWMNWVRQAPGQGLEWMGRIYSGDGDAIYNQKFQGRVTITADESTSTAYMELSSLRSEDTAVYYCAREGKTGDLLLRSWGQGTLVTVSS VL: DIVMTQSPDSLAVSLGERATINCKSSKSVSTSIYSYLAWYQQKPGQPPKLLIYYASTRESGVPDRFSGSGSGTDFTLTISSLQAEDVAVYYCQHSREFPYTFGQGTKLEIK", "ELISA data", 0.075],
  ["CD81K04 HC JA_GG-16-hVH_1_3 / LC GG-03-hVK_4_1 (antibody, V domains shown, human constant region) VH: QVQLVQSGAEVKKPGASVKVSCKASGYTFSSSWMNWVRQAPGQGLEWMGRIYSGDGDAIYNGKFKGRVTITADTSASTAYMELSSLRSEDTAVYYCAREGKTGDLLLRSWGQGTLVTVSS VL: DIVMTQSPDSLAVSLGERATINCKSSKSVSTSIYSYLAWYQQKPGQPPKLLIYYASYRESGVPDRFSGSGSGTDFTLTISSLQAEDVAVYYCQHSREFPFTFGQGTKLEIK", "ELISA data", 0.437],
  ["CD81K04 HC GG-04-hVH_1_69 / LC GG-05-hVK_3_11 (antibody, V domains shown, human constant region) VH: QVQLVQSGAEVKKPGSSVKVSCKASGYTFSSSWMNWVRQAPGQGLEWMGRIYSGDGDAIYNQKFQGRATITADESTSTAYMELSSLRSEDTAVYYCAREGKTGDLLLRSWGQGTLVTVSS VL: EIVLTQSPATLSLSPGERATLSCRASKSVSTSIYSYLHWYQQKPGQAPRLLIYYASNRETGIPARFSGSGSGTDFTLTISSLEPEDFAVYYCQHSREFPFTFGQGTKLEIK", "ELISA data", 0.352],
  ["CD81K04 HC GG-02-hVH_1_69 / LC JA_GG-07-hVK_7_3 (antibody, V domains shown, human constant region) VH: QVQLVQSGAEVKKPGSSVKVSCKASGYTFSSSWMNWVRQAPGQGLEWMGRIYSGDGDAIYNQKFQGRVTITADESTSTAYMELSSLRSEDTAVYYCAREGKTGDLLLRSWGQGTLVTVSS VL: DIVLTQSPASLAVSPGQRATITCRASKSVSTSIYSYMHWYQQKPGQPPKLLIKYASNKDTGVPARFSGSGSGTDFTLTINPVEANDAANYYCLHSREFPYTFGQGTKLEIK", "ELISA data", 0.13],
  ["CD81K04 HC K04_JA-13-hVH_1_3 / LC GG-02-hVK_4_1 (antibody, V domains shown, human constant region) VH: QVQLVQSGAEVKKPGASVKVSCKASGYTFSSSWMNWVRQAPGQRLEWMGRIYSGDGDAIYNGKFKGRVTITRDTSASTAYMELSSLRSEDTAVYYCAREGKTGDLLLRSWGQGTLVTVSS VL: DIVMTQSPDSLAVSLGERATINCKSSKSVSTSIYSYMHWYQQKPGQPPKLLIYYASYRESGVPDRFSGSGSGTDFTLTISSLQAEDVAVYYCQHSREFPFTFGQGTKLEIK", "ELISA data", 0.475]
]}
